Origin of values: patent EP4772193A1

For each of the binders below, state its Relative binding activity.
- measured.target: T1, recombinant human soluble gpNMB (recombinant human gpNMB-FLAG-His) (human, UniProt Q14956 23-498)
- T1 sequence: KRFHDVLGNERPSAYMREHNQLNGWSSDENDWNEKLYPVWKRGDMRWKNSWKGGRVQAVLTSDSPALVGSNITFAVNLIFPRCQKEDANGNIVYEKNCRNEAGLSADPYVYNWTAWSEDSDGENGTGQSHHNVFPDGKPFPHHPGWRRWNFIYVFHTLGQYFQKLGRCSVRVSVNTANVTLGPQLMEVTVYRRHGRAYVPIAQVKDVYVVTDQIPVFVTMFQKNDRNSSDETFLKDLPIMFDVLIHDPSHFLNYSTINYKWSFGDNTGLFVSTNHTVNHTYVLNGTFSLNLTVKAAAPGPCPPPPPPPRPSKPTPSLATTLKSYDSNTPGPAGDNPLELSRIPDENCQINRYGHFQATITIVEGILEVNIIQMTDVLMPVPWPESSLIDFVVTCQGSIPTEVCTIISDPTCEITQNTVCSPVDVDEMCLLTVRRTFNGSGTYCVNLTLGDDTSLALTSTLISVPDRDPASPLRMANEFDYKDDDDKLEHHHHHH
- assay.procedure: antigen ELISA, vs hGPN18-2_H2L3
One number for each entry.

binder	measurement.kind	measured
hGPN18-2_H2L3 VL P100A (antibody, V domains shown) VH: QVQLVQSGPGLVQPTQTLTLTCSFSGFSLSTSVMGVGWIRQPSGKGLEWLADIWWDDDKDYNPSLKSRLTISKDTSKNQVVLTMTNMDTVDTATYYCARTYYSNYEYYGMDYWGQGTLVTVSS VL: DIVMTQSPDSLAVSLGERATINCRSSQTIILSNGNTYLEWYQQKPGQPPKLLIYKVSNRFSGVPDRFSGSGSGTDFTLTISSLQAEDVAVYYCFQGSHVAFTFGSGTKLEIKR	Relative binding activity	0.84
hGPN18-2_H2L3 VL R24A (antibody, V domains shown) VH: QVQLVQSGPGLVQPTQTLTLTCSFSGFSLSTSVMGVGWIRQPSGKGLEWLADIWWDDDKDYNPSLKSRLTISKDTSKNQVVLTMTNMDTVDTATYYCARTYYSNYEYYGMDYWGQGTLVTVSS VL: DIVMTQSPDSLAVSLGERATINCASSQTIILSNGNTYLEWYQQKPGQPPKLLIYKVSNRFSGVPDRFSGSGSGTDFTLTISSLQAEDVAVYYCFQGSHVPFTFGSGTKLEIKR	Relative binding activity	1.04
hGPN18-2_H2L3 VL S57A (antibody, V domains shown) VH: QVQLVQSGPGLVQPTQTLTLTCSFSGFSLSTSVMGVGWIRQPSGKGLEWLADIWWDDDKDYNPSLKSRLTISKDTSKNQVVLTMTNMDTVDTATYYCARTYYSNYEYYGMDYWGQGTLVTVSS VL: DIVMTQSPDSLAVSLGERATINCRSSQTIILSNGNTYLEWYQQKPGQPPKLLIYKVANRFSGVPDRFSGSGSGTDFTLTISSLQAEDVAVYYCFQGSHVPFTFGSGTKLEIKR	Relative binding activity	1.05
hGPN18-2_H2L3 VL Q27A (antibody, V domains shown) VH: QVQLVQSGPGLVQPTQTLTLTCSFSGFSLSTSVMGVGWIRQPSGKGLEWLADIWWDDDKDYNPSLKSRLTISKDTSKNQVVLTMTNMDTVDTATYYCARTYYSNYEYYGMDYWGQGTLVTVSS VL: DIVMTQSPDSLAVSLGERATINCRSSATIILSNGNTYLEWYQQKPGQPPKLLIYKVSNRFSGVPDRFSGSGSGTDFTLTISSLQAEDVAVYYCFQGSHVPFTFGSGTKLEIKR	Relative binding activity	1.04
hGPN18-2_H2L3 VL Q95A (antibody, V domains shown) VH: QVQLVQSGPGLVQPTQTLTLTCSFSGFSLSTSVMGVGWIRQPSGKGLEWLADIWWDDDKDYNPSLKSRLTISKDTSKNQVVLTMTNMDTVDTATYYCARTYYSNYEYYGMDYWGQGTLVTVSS VL: DIVMTQSPDSLAVSLGERATINCRSSQTIILSNGNTYLEWYQQKPGQPPKLLIYKVSNRFSGVPDRFSGSGSGTDFTLTISSLQAEDVAVYYCFAGSHVPFTFGSGTKLEIKR	Relative binding activity	0.79

// input: 2 binders below; output: Relative binding activity for each
1. hGPN18-2_H2L3 VL T28A (antibody, V domains shown) VH: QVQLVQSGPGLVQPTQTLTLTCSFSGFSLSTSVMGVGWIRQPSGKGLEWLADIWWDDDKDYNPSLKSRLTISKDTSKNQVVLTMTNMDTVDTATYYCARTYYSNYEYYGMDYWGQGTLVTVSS VL: DIVMTQSPDSLAVSLGERATINCRSSQAIILSNGNTYLEWYQQKPGQPPKLLIYKVSNRFSGVPDRFSGSGSGTDFTLTISSLQAEDVAVYYCFQGSHVPFTFGSGTKLEIKR
2. hGPN18-2_H2L3 VL T36A (antibody, V domains shown) VH: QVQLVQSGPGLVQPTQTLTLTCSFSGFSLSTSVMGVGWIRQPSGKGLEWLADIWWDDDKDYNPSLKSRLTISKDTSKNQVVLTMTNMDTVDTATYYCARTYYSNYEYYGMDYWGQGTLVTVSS VL: DIVMTQSPDSLAVSLGERATINCRSSQTIILSNGNAYLEWYQQKPGQPPKLLIYKVSNRFSGVPDRFSGSGSGTDFTLTISSLQAEDVAVYYCFQGSHVPFTFGSGTKLEIKR

1. 1.05
2. 1.06
